meta.source: PubChem BioAssay AID1159580

test: chemical genetic growth profiling, strain panel (AID 1159580);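 note: tested at 20 µM; growth read once vehicle control cultures reached saturation at 30 °C; 1 = growth at the plate median or of vehicle wells; lower values mean less growth of the strain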; conditions: S. cerevisiae deletion strains, growth OD, locus YLR268W, strain sec22, hits give low values
About 2,000 (36%) of roughly 5,500 compounds were called active. Not shown: some 18% with an inconclusive outcome. The list shows a part of the results.
observation.type: normalized growth

So, Cc1cccc(C)c1OCC(C)N (stereo not drawn) ? Its normalized growth was 0.993 (inactive)

So, CC1(C)C(C=C(Cl)Cl)C1C(=O)OC(C#N)c1cccc(Oc2ccccc2)c1 (stereo not drawn) ? Its normalized growth was 1 (inactive)

So, COc1ccc(OC)c(C(O)C(C)N)c1 (stereo not drawn) ? Its normalized growth was 1 (inactive)

---

test: chemical genetic growth profiling, strain panel (AID 1159580); details: S. cerevisiae deletion strains, growth OD, locus YLR113W, strain HOG1, hits give low values
Screen size: about 5,500 compounds; about 2,000 (36%) were called active. About 18% were inconclusive and are not listed. The list shows a part of the results.
observation.type: normalized growth

So, C=C(C)[C@@H]1[C@H]2OC(=O)[C@@H]1[C@]1(O)C[C@H]3O[C@]34C(=O)O[C@H]2[C@]14C ? Its normalized growth was 0.982 (inactive)

So, CC1=C(/C=C/C(C)=C/C=C/C(C)=C/C=C/C=C(C)/C=C/C=C(C)/C=C/C(=O)[C@]2(C)C[C@@H](O)CC2(C)C)C(C)(C)C[C@H](O)C1 ? Its normalized growth was 0.991 (inactive)

So, CCOC(=O)[C@H](CCc1ccccc1)N[C@H]1CCc2ccccc2N(CC(=O)O)C1=O ? Its normalized growth was 1.01 (inactive)

So, CC1=C(CC(=O)O)c2cc(F)ccc2/C1=C\c1ccc(S(C)=O)cc1 (stereo unspecified) ? Its normalized growth was 1 (inactive)

So, CCCCCCCCCCCCCCCC(=O)OC/C=C(C)/C=C/C=C(C)/C=C/C1=C(C)CCCC1(C)C ? Its normalized growth was 0.99 (inactive)

So, CCN(CC)CCNC(=O)c1cc(Br)c(N)cc1OC ? Its normalized growth was 1.01 (inactive)

So, CN1CCC(=C2c3ccccc3CCc3sccc32)CC1 ? Its normalized growth was 1.01 (inactive)

So, CN1CCC(=C2c3ccccc3CC(=O)c3sccc32)CC1 ? Its normalized growth was 1.02 (inactive)

So, COc1cc2c(cc1OC)C(=O)OC2 ? Its normalized growth was 0.971 (inactive)

So, CC(Oc1ccccc1)C(=O)N[C@@H]1C(=O)N2[C@@H]1SC(C)(C)[C@@H]2C(=O)O (stereo partly specified) ? Its normalized growth was 1.01 (inactive)

So, Cc1cccc(C)c1OCC(C)N (stereo unspecified) ? Its normalized growth was 0.987 (inactive)

---

Give measured normalized growth for each item. Keep answers brief.
experiment: chemical genetic growth profiling, strain panel (AID 1159580);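 note: tested at 20 µM; growth read once vehicle control cultures reached saturation at 30 °C; 1 = growth at the plate median or of vehicle wells; lower values mean less growth of the strain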; settings: S. cerevisiae deletion strains, growth OD, locus YLL026W, hits give low values
The whole screen tested about 5,500 compounds, of which about 2,000 (36%) were called active. Roughly 18% stayed inconclusive and do not appear here. This is one part of the list.
Just the number, please.

So, COc1cc(NS(=O)(=O)c2ccc(N)cc2)nc(OC)n1 ? Its normalized growth was 0.992

So, S=c1nc[nH]c2nc[nH]c12 ? Its normalized growth was 1.01

So, COC1=C(OC)C(=O)C(C/C=C(\C)CC/C=C(\C)CC/C=C(\C)CC/C=C(/C)CC/C=C(\C)CC/C=C(\C)CC/C=C(\C)CC/C=C(\C)CC/C=C(\C)CCC=C(C)C)=C(C)C1=O ? Its normalized growth was 1

So, CC(C)c1c(C(=O)c2ccccc2)c(-c2ccccc2)c(-c2ccc(F)cc2)n1CC[C@@H](O)C[C@@H](O)CC(=O)O ? Its normalized growth was 0.937

So, NC(=O)c1ccc[n+]([C@@H]2O[C@H](COP(=O)([O-])OP(=O)(O)OC[C@H]3O[C@@H](n4cnc5c(N)ncnc54)[C@H](O)[C@@H]3O)[C@@H](O)[C@H]2O)c1 ? Its normalized growth was 1.02

So, Cc1[nH]c(C)c(Cl)c(=O)c1Cl ? Its normalized growth was 1

So, Cc1cc(O)c(C=O)c(O)c1C(=O)O ? Its normalized growth was 1.01

So, CC(=O)OC(C)(C)[C@@H]1Cc2cc3ccc(=O)oc3cc2O1 ? Its normalized growth was 0.97

So, CC(Oc1ccccc1)C(=O)N[C@@H]1C(=O)N2[C@@H]1SC(C)(C)[C@@H]2C(=O)O (stereo not given in full) ? Its normalized growth was 0.998

So, Cc1cc(O)c(C)c(O)c1C(=O)O ? Its normalized growth was 1

So, NCCSSCCN ? Its normalized growth was 0.989

So, CCOC(=O)c1c(C)cc(O)c(C=O)c1O ? Its normalized growth was 0.706

So, COC1=CC(=O)C[C@@H](C)[C@]12Oc1c(Cl)c(OC)cc(OC)c1C2=O ? Its normalized growth was 0.984

So, CCOC(=O)CCC(=O)O[C@H]1[C@H](O[C@@H]2[C@@H](C)[C@H](O[C@H]3C[C@@](C)(OC)[C@@H](O)[C@H](C)O3)[C@@H](C)C(=O)O[C@H](CC)[C@@](C)(O)[C@H](O)[C@@H](C)C(=O)[C@H](C)C[C@@]2(C)O)O[C@H](C)C[C@@H]1N(C)C ? Its normalized growth was 0.991

So, CCN(CC)CCNC(=O)c1cc(Br)c(N)cc1OC ? Its normalized growth was 0.99

---

assay: chemical genetic growth profiling, strain panel (AID 1159580);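 note: tested at 20 µM; growth read once vehicle control cultures reached saturation at 30 °C; 1 = growth at the plate median or of vehicle wells; lower values mean less growth of the strain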; conditions: S. cerevisiae deletion strains, growth OD, locus YHR087W, strain rtc3, hits give low values
Screen size: about 5,500 compounds; about 2,000 (36%) were called active. About 18% were inconclusive and are not listed. This is one part of the list.
# label = Fulfilled if normalized growth < 1 else Not fulfilled

Input line: is_below(normalized growth, 1) for CCOC(=O)CSC(=S)NCc1ccc(C)cc1 ?
Output line: Fulfilled

Input line: is_below(normalized growth, 1) for CN(C)c1ccc(C(=O)NN)cc1 ?
Output line: Not fulfilled

Input line: is_below(normalized growth, 1) for Cc1ccc(-c2csc(-c3ccc(Cl)cc3)n2)c(C)c1 ?
Output line: Fulfilled

---

assay: chemical genetic growth profiling, strain panel (AID 1159580);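 note: tested at 20 µM; growth read once vehicle control cultures reached saturation at 30 °C; 1 = growth at the plate median or of vehicle wells; lower values mean less growth of the strain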; conditions: S. cerevisiae deletion strains, growth OD, locus YDR150W, strain NUM1, hits give low values
Screen size: about 5,500 compounds; about 2,000 (36%) were called active. Another 18% or so got no clear call; they are omitted. The list shows a part of the results.
observation.type: normalized growth
Just the number, please.

So, C[N+](C)(C)CCCCCCCCCC[N+](C)(C)C ? Its normalized growth was 0.989

So, C=C(C)C1CNC(C(=O)O)C1CC(=O)O (centres undefined) ? Its normalized growth was 1.01

So, CN(C)c1ccc(C(=O)NN)cc1 ? Its normalized growth was 0.924

So, NCC(O)C1CCCCCCC1 (centres undefined) ? Its normalized growth was 0.995

So, CC1=C(CC(=O)O)c2cc(F)ccc2/C1=C\c1ccc(S(C)(=O)=O)cc1 ? Its normalized growth was 0.989

So, S=c1nc[nH]c2nc[nH]c12 ? Its normalized growth was 0.999

So, Nc1nc2ccc(OC(F)(F)F)cc2s1 ? Its normalized growth was 0.954

So, COc1cc(NS(=O)(=O)c2ccc(N)cc2)nc(OC)n1 ? Its normalized growth was 0.999

So, NCCSSCCN ? Its normalized growth was 1.01

So, COc1cc2c(cc1OC)C(=O)OC2 ? Its normalized growth was 1

So, COc1ccc2cc([C@H](C)CO)ccc2c1 ? Its normalized growth was 0.974

So, CC1=C(C(C)O)C2=NC1C=c1[nH]c(c(C)c1C(C)O)=Cc1[nH]c(c(CCC(=O)O)c1C)C=c1[nH]c(c(C)c1CCC(=O)O)=C2 (centres undefined) ? Its normalized growth was 0.997

So, C[C@@H](NCCc1ccc(O)cc1)[C@@H](O)c1ccc(O)cc1 ? Its normalized growth was 1.01

So, CC1CC2C3CC(F)C4=CC(=O)C=CC4(C)C3(F)C(O)CC2(C)C1(O)C(=O)CO (centres undefined) ? Its normalized growth was 1.03

So, CC(C)(C)c1ccc(-c2nc(-c3cc(C(C)(C)C)c(O)c(C(C)(C)C)c3)cs2)cc1 ? Its normalized growth was 0.912

So, CC(CCc1ccccc1)NC(C)C(O)c1ccc(O)cc1 (centres undefined) ? Its normalized growth was 0.984

So, COc1cc(/C=C2\NC(=O)NC2=O)ccc1O ? Its normalized growth was 0.963

So, CCOC(=O)c1c(C)cc(O)c(C)c1O ? Its normalized growth was 0.98

So, CC(=O)c1c(O)c(C)c(O)c2c1oc1c(C(C)=O)c(O)c(C)c(O)c12 ? Its normalized growth was 0.988

So, CC1(C)C(C=C(Cl)Cl)C1C(=O)OC(C#N)c1cccc(Oc2ccccc2)c1 (centres undefined) ? Its normalized growth was 1

So, N[C@@H](C(=O)O)c1ccccc1 ? Its normalized growth was 0.997

So, COc1cc2c(cc1OC)Cc1cc(OC)c(OC)cc1Cc1cc(OC)c(OC)cc1C2 ? Its normalized growth was 0.978

So, CCCCCCCCCCCCCCCC[N+](C)(C)C ? Its normalized growth was 0.0572

So, CN1CCCN=C1COC(=O)C(O)(c1ccccc1)C1CCCCC1 (centres undefined) ? Its normalized growth was 1.01

So, CCCc1cc(=O)c2ccc(O)cc2o1 ? Its normalized growth was 0.967

So, O=C1C=CC(=C(c2ccc(O)cc2)c2ccc(O)cc2)C=C1 ? Its normalized growth was 1.01

So, CCCCCCCCNC(C)C(O)c1ccc(SC(C)C)cc1 (centres undefined) ? Its normalized growth was 0.0542

So, O=C(CSc1nnnn1-c1ccccc1)NC1Cc2ccccc2C1 ? Its normalized growth was 0.988

So, Clc1cccc(Cl)c1CSC1=NCCCN1C1CCCCC1 ? Its normalized growth was 0.993

So, CNCCc1ccc(O)c(O)c1 ? Its normalized growth was 0.922

So, CC(N)C(=O)OC(C)(C)Cc1ccc(Cl)cc1 (centres undefined) ? Its normalized growth was 0.96

So, CC(C)OC(=O)C(C)(C)Oc1ccc(C(=O)c2ccc(Cl)cc2)cc1 ? Its normalized growth was 1.01

So, C[C@@H]1O[C@@H](O[C@H]2C[C@@H](O)[C@]3(CO)[C@H]4[C@H](O)C[C@]5(C)[C@@H](C6=CC(=O)OC6)CC[C@]5(O)[C@@H]4CC[C@]3(O)C2)[C@H](O)[C@H](O)[C@H]1O ? Its normalized growth was 1

So, CCOC(=O)C(C)(C)Oc1ccc(Cl)cc1 ? Its normalized growth was 1

So, COc1ccc(C2=C(C(C)=O)C(C)=NC(=S)C2C#N)cc1 (centres undefined) ? Its normalized growth was 0.933

So, COC(=O)/C(=C/N(C)C)Sc1cc(C)c(Cl)cc1Cl ? Its normalized growth was 0.958

So, Ic1ccc(I)s1 ? Its normalized growth was 1.02

So, CCCCNc1cc(C(=O)O)cc(S(N)(=O)=O)c1Oc1ccccc1 ? Its normalized growth was 0.975

So, COc1ccc2c3c1O[C@H]1C[C@@H](O)C=C[C@@]31CCN(C)C2 ? Its normalized growth was 1.01
